Molecular target: UniProt:Q5VLE3
Test: Inhibition of Aspergillus nidulans RmtA at 10 uM by TRF assay
Measured inhibition accompanies every entry in the list below.
The response must be a number in % with no trailing unit.

Examples with answers:
> print(dat)
                          molsmiles  quantityunit  quantitativeresult
1  c1nc(NCCCc2c[nH]cn2)c2nc[nH]c2n1             %                64.7
2         N=C(N)SCc1cc(Cl)cc(Cl)c1O             %                83.9
3     Cc1ccc(CNc2ncnc3[nH]cnc23)cc1             %                  77
4               CC(C)(CN)SCc1ccccc1             %                68.3

Below: the item to evaluate.
Entry N=C(N)Nc1nc2cc([N+](=O)[O-])ccc2[nH]1 : reported inhibition = ?
75.1

###

Target: UniProtKB Q5VLE3
measureName: IC50 (µM)
The response must be a number in µM with no trailing unit.

Examples with answers:
> print(dat)
                                  molsmiles  quantityunit  quantitativeresult
1     N=C(N)c1ccc(/C=C/c2ccc(C(=N)N)cc2)cc1            µM                29.9
2  Nc1ccc(S(=O)(=O)c2ccc(NCN3C(=O)NC(=O)C(=O)C3=O)cc2)cc1            µM                 8.3

Below: the item to evaluate.
Entry O=C(Nc1ccc2c(O)cc(S(=O)(=O)O)cc2c1)Nc1ccc2c(O)cc(S(=O)(=O)O)cc2c1 : reported IC50 = ?
33.8

###

Measured inhibition accompanies every entry in the list below.
Molecular target: UniProt Q5VLE3
Assay: Inhibition of Aspergillus nidulans RmtA at 2 uM by TRF assay
Just the number plus its unit, please.

Examples with answers:
> print(dat)
                               molsmiles   assayedsystem  measurename  result
1              N=C(N)SCc1cc(Cl)cc(Cl)c1O  UniProt Q5VLE3   inhibition   18.3%
2  N=C(N)Nc1nc2cc([N+](=O)[O-])ccc2[nH]1  UniProt Q5VLE3   inhibition   15.6%
3          Cc1ccc(CNc2ncnc3[nH]cnc23)cc1  UniProt Q5VLE3   inhibition   26.1%

Item: c1nc(NCCCc2c[nH]cn2)c2nc[nH]c2n1 Test system: UniProt Q5VLE3 Read-out: inhibition Value: ?
34.9%
